tested on: JJN-3 (NIK translocated) multiple myeloma cells; test: Antiproliferative activity on JJN-3 multiple myeloma cells (CellTiter-Glo, 96 hr), Biological Assay C; type: cell-based, human; conditions: Homo sapiens, JJN-3, 96 h, JJN-3 (NIK translocated) cells, averaged values, read-out: JJN-3 Proliferation inhibition (IC50 (nM))
TEST READOUT: log10 of IC50 (log10 of the value in nM)
Please note: log10 values; quantity IC50; unit nM.

Asked: # input compound: COc1cc(C(=O)N2CC3CC(C2)C3O)c(Cl)cc1Nc1nccc(-c2cc(C#N)c3c(c2)C(C)(C)CN3)n1 (stereo not shown) ; wanted: its log10 of IC50
Given back: 1.40

Asked: # input compound: "COc1cc(S(C)(=O)=O)ccc1Nc1nccc(-c2cc(C#N)c3c(c2)[C@@](C)(CO)CN3)n1" ; wanted: its log10 of IC50
Given back: 1.83

Asked: # input compound: "COCCOc1cc(C2CCOCC2)ccc1Nc1nccc(-c2cc(C#N)c3c(c2)[C@@](C)(CO)CN3)n1" ; wanted: its log10 of IC50
Given back: 2.27

Asked: # input compound: CC(C)N1CCN(C(=O)Cc2ccc(Cl)cc2Nc2nccc(-c3cc(C#N)c4c(c3)C(C)(CO)CN4)n2)CC1 (stereo not shown) ; wanted: its log10 of IC50
Given back: 2.45

Asked: # input compound: "COc1cc(N2CCC(OC)CC2)c(Cl)cc1Nc1nccc(-c2cc(C#N)c3c(c2)C(C)(C)CN3)n1" ; wanted: its log10 of IC50
Given back: 2.59

Asked: # input compound: "Cc1ccc(C#N)cc1Nc1nccc(-c2cc(C#N)c3c(c2)[C@@](C)(COS(=O)(=O)O)CN3)n1" ; wanted: its log10 of IC50
Given back: 2.30
